- Target: human collagenase-3 (Coll3) (Homo sapiens)
Measure: Ki

Consider the worked cases shown below.
Molecule: CC(C)(C)[C@@H](CO)NC(=O)[C@@H](CC(=O)NO)n1ccc(-c2ccc(-c3ccncc3)cc2)c1
Ki: 0.018 nM

Molecule: CNC(=O)[C@@H](NC(=O)[C@@H](CC(=O)O)c1ccn(-c2ccc(-c3ccc(C#N)cc3)cc2)c1)C(C)(C)C
Ki: 0.028 nM

Molecule: CC(C)(C)[C@@H](CO)NC(=O)[C@@H](CC(=O)NO)n1cnc(-c2ccc(-c3ccccc3)cc2)c1
Ki: 6.5 nM

Molecule: CC(C)(C)[C@H](NC(=O)[C@@H](CC(=O)O)n1ccc(-c2ccc(-c3ccncc3)cc2)c1)C(=O)Nc1ccncc1
Ki: 0.01 nM

Molecule: CNC(=O)[C@@H](CC(=O)O)n1ccc(-c2ccc(-c3ccncc3)cc2)c1
Ki: 284 nM

Molecule: CC(C)(C)[C@@H](CO)NC(=O)C(CC(=O)NO)n1cnc(-c2ccc(-c3ccccc3)cc2)c1 (mixture of isomers)
Ki: 9.7 nM

Below are some molecules; for each one, tell me its Ki.
1. CCCC(C(=O)O)[C@H](C(=O)N[C@H](CO)Cc1ccccc1)n1ccc(-c2ccc(-c3ccc(C#N)cc3)cc2)c1 (mixture of isomers)
2. O=C(O)C[C@H](C(=O)N[C@@H]1c2ccccc2C[C@H]1O)n1ccc(-c2ccc(-c3ccncc3)cc2)c1
3. CC(=O)[C@H](CC(C)C)NC(=O)[C@@H](CC(=O)O)n1ccc(-c2ccc(-c3ccccc3)cc2)c1
4. CNC(=O)[C@@H](NC(=O)C(CC(=O)NO)n1cnc(-c2ccc(-c3ccccc3)cc2)c1)C(C)(C)C (mixture of isomers) [Example 19(e)]
5. CNC(=O)[C@@H](NC(=O)[C@@H](CC(=O)O)n1ccc(-c2ccccc2)c1)C(C)(C)C
6. COC(=O)c1ccc(NC(=O)[C@H](CC(C)C)NC(=O)[C@@H](CC(=O)O)n2ccc(-c3ccc(-c4ccccc4)cc3)c2)cc1
7. O=C(O)C[C@H](C(=O)N[C@H](CO)c1ccccc1)n1ccc(-c2ccc(-c3ccncc3)cc2)c1
8. O=C(CC(C(=O)N[C@H]1CCCCNC1=O)n1cnc(-c2ccc(-c3ccccc3)cc2)c1)NO (mixture of isomers)

1. 23.5 nM
2. 15.6 nM
3. 123 nM
4. 0.13 nM
5. 18.3 nM
6. 40 nM
7. 9.1 nM
8. 43 nM

---

- Assay comment: Determination of inhibitor concentration in plasma after oral dosing
- Type: in vivo, Sprague Dawley rats
- Protocol conditions: Sprague-Dawley, rat plasma, dose 25 mg/kg, vehicle C (2.8 mg/mL sodium bicarbonate in 60% aqueous propylene glycol)
Measure: Cmax (ng/mL)
Give bare numbers, in ng/mL.

What Cmax value was documented for this compound, CC1(C)COC(=O)[C@H]1NC(=O)[C@@H](CC(=O)O)c1ccn(-c2ccc(-c3ccc(C#N)cc3)cc2)c1 ?
1370

---

Assignment: determine reported GelA (Ki,app) for the given molecules.
- Target: human progelatinase A (GelA), catalytic and fibronectin-like portion (Homo sapiens)
- Construct: The catalytic and fibronectin-like portion of human progelatinase A (GelA) was expressed as a fusion protein with ubiquitin; ubiquitin; made in house; host or cells: E. coli
- Sequence (P08253 110-465 limits assumed): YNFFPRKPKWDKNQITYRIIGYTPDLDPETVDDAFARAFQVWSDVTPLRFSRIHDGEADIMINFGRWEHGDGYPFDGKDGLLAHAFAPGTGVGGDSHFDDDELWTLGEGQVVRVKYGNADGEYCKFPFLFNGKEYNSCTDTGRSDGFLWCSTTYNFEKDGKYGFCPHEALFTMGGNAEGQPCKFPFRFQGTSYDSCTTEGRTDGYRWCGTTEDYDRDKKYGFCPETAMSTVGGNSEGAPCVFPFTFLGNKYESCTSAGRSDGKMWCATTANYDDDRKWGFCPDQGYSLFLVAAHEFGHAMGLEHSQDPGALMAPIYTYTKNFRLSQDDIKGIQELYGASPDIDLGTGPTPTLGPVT
- Assay comment: Fluorometric MCA-peptide hydrolysis assay, gelatinase A (GelA)
- Assay type: biochemical
- Protocol conditions: apparent Ki; 10 μM MCA peptide substrate, 37° C., pH 7.5
Counter-ions that a name gives are not always drawn.
Numbers only, in nM.

Molecule: O=C(O)C[C@H](C(=O)N[C@H](CO)c1ccccc1)n1ccc(-c2ccc(-c3ccncc3)cc2)c1
Measure: GelA (Ki,app)
Experimental result: 1.04
//
Molecule: O=C(O)C[C@H](C(=O)N[C@H](CO)Cc1ccccc1)n1ccc(-c2ccc(-c3ccccc3)cc2)c1
Measure: GelA (Ki,app)
Experimental result: 5.4
//
Molecule: CC(C)(C)[C@H](NC(=O)[C@@H](CC(=O)O)n1ccc(-c2ccc(-c3ccc(C#N)cc3)cc2)c1)C(=O)Nc1ccncc1 [Example 5(d), Formate Salt]
Measure: GelA (Ki,app)
Experimental result: 0.028

Parameter requested: GelA (Ki,app). Apply to each item below.
1. CNC(=O)[C@@H](NC(=O)[C@@H](CC(=O)O)n1ccc(-c2ccc(-c3ccncc3)cc2)c1)C(C)(C)C
2. CC1(C)COC(=O)[C@H]1NC(=O)[C@@H](CC(=O)O)n1ccc(-c2ccc(-c3ccncc3)cc2)c1
3. CNC(=O)[C@@H](NC(=O)[C@@H](CC(=O)O)n1ccc(C(=O)Cc2ccc(C#N)cc2)c1)C(C)(C)C

0.066
0.806
1230

# per-item lookup of GelA (Ki,app); items listed below
1. COC[C@H](Cc1ccccc1)NC(=O)[C@@H](CC(=O)O)n1ccc(-c2ccc(-c3ccccc3)cc2)c1
2. CC(C)C[C@H](NC(=O)[C@@H](CC(=O)O)n1ccc(-c2ccc(-c3ccccc3)cc2)c1)C(C)O (mixture of isomers)

1. 93
2. 58

---

- Target: Human matrilysin (Matr) (Homo sapiens)
- Sequence (P09237 95-267): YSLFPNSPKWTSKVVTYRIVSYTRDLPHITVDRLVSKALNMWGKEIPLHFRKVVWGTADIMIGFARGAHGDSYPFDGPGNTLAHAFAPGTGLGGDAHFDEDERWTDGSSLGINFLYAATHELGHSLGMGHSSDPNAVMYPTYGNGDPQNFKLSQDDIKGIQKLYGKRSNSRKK
Assign pKi to each entry below.
Numbers only, as −log10 of the molar value.

Below, each entry is followed by its recorded pKi result.
Compound: N#Cc1ccc(-c2ccc(-c3ccn([C@H](CC(=O)O)C(=O)N[C@H](CO)Cc4ccccc4)c3)cc2)cc1 [Example 4(a)]
Measure: pKi
Experimental result: 5.28
--
Compound: O=C(O)C[C@H](C(=O)N[C@H](CO)c1ccccc1)n1ccc(-c2ccc(-c3ccncc3)cc2)c1 [Example 5(b)]
Measure: pKi
Experimental result: 5.28
--
Compound: O=C(O)C[C@H](C(=O)N[C@H](CO)Cc1ccccc1)c1ccn(-c2ccc(-c3ccccc3)cc2)c1 [Example 13]
Measure: pKi
Experimental result: 4.77
--
Compound: O=C(O)C[C@H](C(=O)N[C@H]1Cc2cn(c3ccccc23)CCOCCNC1=O)n1ccc(-c2ccc(-c3ccncc3)cc2)c1 [Example 7(a)]
Measure: pKi
Experimental result: 6.19
--
Compound: CNC(=O)[C@@H](NC(=O)[C@@H](CC(=O)O)n1ccc(-c2ccc(-c3ccc(C#N)cc3)cc2)c1)C(C)(C)C [Example 5(c)]
Measure: pKi
Experimental result: 6.52

Please state pKi for every compound in the list that follows.
1. CNC(=O)[C@@H](NC(=O)[C@@H](CC(=O)O)n1ccc(-c2ccc(-c3ccc(C(N)=O)cc3)cc2)c1)C(C)(C)C [Example 5(e)]
2. COC(=O)c1ccc(NC(=O)[C@H](CC(C)C)NC(=O)[C@@H](CC(=O)O)c2cccs2)cc1 [Example 17(a)]
3. O=C(C[C@H](C(=O)N[C@H](CO)Cc1ccccc1)n1ccc(-c2ccc(-c3ccccc3)cc2)c1)NO [Example 8(a)]
4. CC(C)(C)[C@H](NC(=O)[C@@H](CC(=O)O)n1ccc(-c2ccc(-c3ccncc3)cc2)c1)C(=O)Nc1ccncc1 [Example 7(b)]

[6.74, 6.34, 7.44, 8.30]

---

Consider the following compounds; for each one, report its pKi.
- Target: catalytic domain of human stromelysin (Hsln) (Homo sapiens, UniProt P08254)
- Construct: The catalytic domain of human stromelysin (Hsln) was obtained by expression and purification of a C-terminally truncated prostromelysin-1
- Sequence (P08254 100-272 limits assumed): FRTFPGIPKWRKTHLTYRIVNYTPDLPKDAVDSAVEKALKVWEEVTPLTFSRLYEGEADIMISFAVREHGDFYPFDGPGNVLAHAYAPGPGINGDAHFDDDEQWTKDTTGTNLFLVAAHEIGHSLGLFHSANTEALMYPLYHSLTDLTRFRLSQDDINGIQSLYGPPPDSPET
- Assay comment: Fluorometric MCA-peptide hydrolysis assay, stromelysin (Hsln)
- Protocol conditions: apparent Ki; 10 μM MCA peptide substrate, 37° C., pH 7.5; read-out: Hsln (Ki,app)
Where a name gives a salt, the structure may show the parent alone.
Numbers only, as −log10 of the molar value.

Example results:
Compound: CC(C)(O)C(CO)NC(=O)[C@@H](CC(=O)O)n1ccc(-c2ccc(-c3ccccc3)cc2)c1 (stereo in doubt) [Example 1(i)]
Measure: pKi
Experimental result: 6.95

Compound: CNC(=O)[C@@H](NC(=O)[C@@H](CC(=O)O)n1ccc(-c2ccc(-c3ccccc3)cc2)c1)C(C)(C)C [Example 1(e)]
Measure: pKi
Experimental result: 8.51

Compound: O=C(O)C[C@H](C(=O)N[C@H](CO)Cc1ccccc1)n1cc(-c2ccc(-c3ccccc3)cc2)cn1 [Example 16]
Measure: pKi
Experimental result: 5.82

Compound: O=C(O)C[C@H](C(=O)N[C@@H]1CCCC[C@H]1O)n1ccc(-c2ccc(-c3ccccc3)cc2)c1 [Example 1(h)]
Measure: pKi
Experimental result: 6.09

Compound: CNC(=O)[C@@H](NC(=O)[C@@H](CC(=O)O)c1ccn(-c2ccc(F)cc2)c1)C(C)(C)C [Example 14(a)]
Measure: pKi
Experimental result: 6.25

Need pKi for each of these compounds.
1. CC(C)(C)[C@@H](CO)NC(=O)C(CC(=O)O)n1cnc(-c2ccc(-c3ccccc3)cc2)c1 (mixture of isomers) [Example 18(b)]
2. NC(=O)c1ccc(-c2ccc(-c3ccn([C@H](CC(=O)O)C(=O)N[C@H](CO)Cc4ccccc4)c3)cc2)cc1 [Example 4(b)]

1. 5.52
2. 7.64

// input: 4 compounds below; output: pKi for each
1. O=C(O)C[C@H](C(=O)N[C@H]1Cc2cn(c3ccccc23)CCOCCNC1=O)n1ccc(-c2ccc(-c3ccncc3)cc2)c1 [Example 7(a)]
2. CC(C)(C)[C@H](NC(=O)[C@@H](CC(=O)O)n1ccc(-c2ccc(-c3ccc(C#N)cc3)cc2)c1)C(=O)Nc1ccncc1 [Example 5(d), Formate Salt]
3. COC(=O)c1ccc(NC(=O)[C@H](CC(C)C)NC(=O)[C@@H](CC(=O)O)n2ccc(-c3ccc(-c4ccccc4)cc3)c2)cc1 [Example 1(k)]
4. CC(C)(C)[C@@H](CO)NC(=O)[C@@H](CC(=O)O)n1ccc(-c2ccc(-c3ccc(C(N)=O)cc3)cc2)c1 [Example 4(c)]

1: 8.70; 2: 8.80; 3: 9.82; 4: 7.19

Hey, quick one: what's pKi for each of these?
1. CCOC(=O)c1ccc(NC(=O)[C@H](CC(C)C)NC(=O)[C@@H](CC(=O)O)n2cccc2)cc1 [Example 1(n)]
2. O=C(O)C[C@H](C(=O)N[C@H](CO)Cc1ccccc1)n1ccc(-c2ccc(-c3ccccc3)cc2)c1 [1(a)]
3. CC(C)(C)[C@H](NC(=O)[C@@H](CC(=O)O)n1ccc(-c2ccc(-c3ccncc3)cc2)c1)C(=O)Nc1ccncc1 [Example 7(b)]

[5.70, 7.19, 9.54]
